target: human Siglec-7 expressed on human cells (primary monocytes, dendritic cells, macrophages, NK cells, … (human, UniProt Q9Y286 19-467)); assay: cell-based or functional assay
Sequence (Q9Y286 19-467): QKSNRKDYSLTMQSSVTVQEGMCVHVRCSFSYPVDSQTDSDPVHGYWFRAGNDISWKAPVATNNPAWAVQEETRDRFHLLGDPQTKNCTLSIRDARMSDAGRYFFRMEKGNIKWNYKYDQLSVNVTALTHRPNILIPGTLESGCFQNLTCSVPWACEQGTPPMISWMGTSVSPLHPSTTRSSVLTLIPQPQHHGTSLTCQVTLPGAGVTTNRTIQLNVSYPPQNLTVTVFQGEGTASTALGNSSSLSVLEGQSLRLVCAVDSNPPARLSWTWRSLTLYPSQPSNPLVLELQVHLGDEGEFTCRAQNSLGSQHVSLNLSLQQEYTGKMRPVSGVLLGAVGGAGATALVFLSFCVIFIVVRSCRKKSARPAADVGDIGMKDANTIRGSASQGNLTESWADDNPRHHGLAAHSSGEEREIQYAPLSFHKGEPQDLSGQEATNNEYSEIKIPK
# reported Percent Siglec-7 Surface Expression, U937 cells; entries follow
Please respond with the number in % and leave the unit unwritten.

Here are 2 binders together with their reported answers.
binder: anti-Siglec-7 antibody 7A3 (antibody, V domains shown, Variable domains assembled from FR and CDR entries; VL FR1 and VH FR1 hold Z and VH FR1 looks shortened at its N-terminus) VH: LVZSGGALVKPGGSLKLSCAASGFTFSNYAMSWVRQTPEKRLEWVASISSGGSYNYYPDSVKGRFTISRDNARNTLYLQMSSLRSKDTAMYYCASQSYGSSYWYFDVWGAGTTVTVSS VL: DIQMTQZPATLSVTPGDRVSLSCRASQSISEYLHWYHQKSHESPRLLIKFASQSICGIPSRFSGSGSGSDFTLTINSVEPEDVGVYYCQNGHNFPYTFGGGTKLEIK
value.unit: %
value.measured: 76.3
//
binder: anti-Siglec-7 antibody 1E8 (antibody, V domains shown) VH: QVQLQQSGAELVRPGASVKLSCSASGFNIKGSLLHWIKQRPLQGLEWIGWIDPEDGETRFDPKFQDKAFLTADTSSTTAYLQLSSLTSEDTAIYYCARTEYSNPAWFAYWGQGTLVTVSA VL: DIQMTQFPATLSVTPGDRVSLSCRASQSISDYLHWYQHKSHESPRLLIKYASQSISGIPSRFSGSGSGWDFTLSINSVEPEDVGIYYCQKGLNFPLTFGGGTKLEMK
value.unit: %
value.measured: 114

Then there is this binder:
Input anti-Siglec-7 antibody 2G4 (antibody, V domains shown, Variable domains assembled from FR and CDR entries) VH: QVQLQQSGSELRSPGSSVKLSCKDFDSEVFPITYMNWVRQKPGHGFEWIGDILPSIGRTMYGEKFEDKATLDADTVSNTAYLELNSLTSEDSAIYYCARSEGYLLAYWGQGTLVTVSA VL: DIQMTQSLSYLSVSLGGRVTITCKASDHINNWLAWYQQKPGNAPRLLISGATSLETGFPSRFSGSGSGKDYTLSITSLQTEDVATYYCHQYWNTPYTFGGGTRLEIK . Output Percent Siglec-7 Surface Expression, U937 cells: 84.6
